- test-details: Caco-2 cell permeability
- conditions: human
parameter-measured: Papp A→B (×10⁻⁶ cm/s)
The reply should contain only the number, in ×10⁻⁶ cm/s.

Qu. Suppose we examine the compound CC(F)(F)C1CN(c2ccc3nccc(C(=O)NCC(=O)N4CSC[C@H]4C#N)c3c2)C1 [Example 147] ; what Papp A→B value has been reported?
Ans. 2.7

###

- test-details: Caco-2 cell permeability
- conditions: human
parameter-measured: Papp B→A (×10⁻⁶ cm/s)
The reply should contain only the number, in ×10⁻⁶ cm/s.

Please review the following examples before continuing.
molecule	Papp B→A (×10⁻⁶ cm/s)
C[C@@H]1CN(c2ccc3nccc(C(=O)NCC(=O)N4CSC[C@H]4C#N)c3c2)C[C@H](C)[C@@H]1O	20
Cc1ccc(-c2ccc3nccc(C(=O)NCC(=O)N4CSC[C@H]4C#N)c3c2)cn1	22

Qu. Suppose we examine the molecule `N#C[C@@H]1CSCN1C(=O)CNC(=O)c1ccnc2ccc(N3CC(F)C3)cc12` ; what Papp B→A value has been reported?
Ans. 23

Qu. Consider next the molecule `N#C[C@@H]1CSCN1C(=O)CNC(=O)c1ccnc2ccc(N3CCC(=O)CC3)cc12` in the same way.
Ans. 17

Qu. Consider next the molecule `CC1(C)OCCN(c2ccc3nccc(C(=O)NCC(=O)N4CSC[C@H]4C#N)c3c2)C1=O` in the same way.
Ans. 4.2

Values from patent US20230312550A1
